Let's look at some binders and their measured koff.
Biological target: ACE2 (human, UniProt Q9BYF1 18-740)
Sequence (Q9BYF1 18-740 limits assumed): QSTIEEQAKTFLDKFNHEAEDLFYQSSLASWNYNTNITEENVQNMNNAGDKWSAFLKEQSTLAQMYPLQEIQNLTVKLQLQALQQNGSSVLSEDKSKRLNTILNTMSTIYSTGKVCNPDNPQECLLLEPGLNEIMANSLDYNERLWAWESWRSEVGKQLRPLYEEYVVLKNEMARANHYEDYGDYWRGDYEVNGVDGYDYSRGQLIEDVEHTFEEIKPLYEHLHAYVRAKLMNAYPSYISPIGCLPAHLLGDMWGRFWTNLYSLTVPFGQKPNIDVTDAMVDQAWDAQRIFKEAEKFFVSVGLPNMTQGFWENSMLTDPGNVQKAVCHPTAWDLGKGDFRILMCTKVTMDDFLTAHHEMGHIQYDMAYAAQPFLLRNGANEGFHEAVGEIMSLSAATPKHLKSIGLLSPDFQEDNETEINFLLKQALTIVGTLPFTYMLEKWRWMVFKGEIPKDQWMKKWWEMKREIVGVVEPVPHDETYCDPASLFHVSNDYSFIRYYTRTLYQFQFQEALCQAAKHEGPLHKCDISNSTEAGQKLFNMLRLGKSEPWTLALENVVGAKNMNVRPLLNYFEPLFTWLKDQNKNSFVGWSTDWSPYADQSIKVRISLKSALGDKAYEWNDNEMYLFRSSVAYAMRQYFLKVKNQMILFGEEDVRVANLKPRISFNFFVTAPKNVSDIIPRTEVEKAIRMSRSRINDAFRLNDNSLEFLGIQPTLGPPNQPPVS
outcome measure: koff (s⁻¹)

[[record]]
binder = "ACE2 variant antibody 4-78 (VHH) VHH: EVQLVESGGGLVQPGGSLRLSCAASGRTFSDDTMGWFRQAPGKEREFVAGMTWSGSSTFYADSVKGRFTISADNSKNTAYLQMNSLKPEDTAVYYCATDPPLFWGQGTLVTVSS"
outcome_measure = "koff"
reported = 0.00263

[[record]]
binder = "ACE2 variant antibody 4-57 (VHH) VHH: EVQLVESGGGLVQPGGSLRLSCAASGLTFRNYAMGWFRQAPGKEREFVAAIGSGGYTDYADSVKGRFTISADNSKNTAYLQMNSLKPEDTAVYYCAVKPGWVARDPSQYNWGQGTLVTVSS"
outcome_measure = "koff"
reported = 0.00239

[[record]]
binder = "ACE2 variant antibody 3-9 (antibody, V domains shown) VH: EVQLLESGGGLVQPGGSLRLSCAASGFTFRSYAMSWVRQAPGKGLEWVSSISGGGASTYYADSVKGRFTISRDNSKNTLYLQMNSLRAEDTAVYYCARVKYLTTSSGWPRPYFDNWGQGTLVTVSS VL: DIQMTQSPSSLSASVGDRVTITCRASQSIGKYLNWYQQKPGKAPKLLIYASSTLQRGVPSRFSGSGSGTDFTLTISSLQPEDFATYYCQQSFSTPFTFGQGTKVEIK"
outcome_measure = "koff"
reported = 0.00569

